- System: MM cell lines (MM.1S, MM.1R, H929, U266, OPM1, RPMI)
- Experiment summary: MTT cell viability assay in MM cell lines
- Assay type: cell-based
- Particulars: Homo sapiens, 48 h, read-out: EC50, viability by MTT assay
Observed property: EC50

Prompt: Find the measured EC50 of COCCN1CCN(Cc2ccc(-c3n[nH]c4c3C(=O)c3c(NC(=O)NN5CCOCC5)cccc3-4)cc2)CC1.Cl.Cl and report it.
Completion: 20 to 70 nM

Values compiled from paper PMC3928098.
